Entries and their protein stability index
B1: PLK2 (parent)
chain: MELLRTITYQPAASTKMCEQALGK

- Variants of: B1
- experimentalProtocol: protein stability index of a GFP-peptide fusion (GPS, HEK-293T) (PSI 1-6); higher = more stable;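 note: lentivirally expressed fusions sorted by FACS into six bins by GFP to DsRed ratio, PSI derived from sequencing read proportions per bin multiplied by bin number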
- experimentalSetup: c terminus: a fixed tail appended
Keep it simple and answer with nothing but the number.

mutantcode=A21G measuredattribute="protein stability index" readoutvalue=2.42

Reported protein stability index of E19Q : 1.52

Reported protein stability index of G23F : 2.36

Reported protein stability index of G23R : 1.34

Reported protein stability index of T15K : 1.68
